IC50 values by entry
TEST TARGET: MAGL (Mus musculus)
Sequence (O35678 whole entry): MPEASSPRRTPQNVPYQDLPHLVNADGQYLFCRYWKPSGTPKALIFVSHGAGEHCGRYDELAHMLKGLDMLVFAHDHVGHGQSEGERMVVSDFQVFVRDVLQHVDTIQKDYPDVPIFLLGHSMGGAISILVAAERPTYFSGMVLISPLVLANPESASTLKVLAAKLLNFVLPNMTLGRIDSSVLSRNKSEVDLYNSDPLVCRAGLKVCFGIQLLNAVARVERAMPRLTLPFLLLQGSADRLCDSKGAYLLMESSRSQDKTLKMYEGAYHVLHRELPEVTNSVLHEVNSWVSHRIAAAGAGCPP
ASSAY NAME: In vitro competitive activity-based protein profiling (FP-Rh), mouse MAGL
Type: biochemical
Design: from tissue; host or cells: mouse brain membrane fraction
APPLIED CONDITIONS: Table 1, mouse proteome, 30 min preincubation at 37° C.

O=C1CCC(=O)N1OC(=O)N1CCCCC1C(F)(F)F (centres unmarked) : > 10000 nM
O=C(ON1C(=O)c2ccccc2C1=O)N1CCN(C(c2ccc(Cl)cc2)c2ccc(Cl)cc2)CC1 : > 10000 nM
CCN(Cc1ccccc1)C(=O)ON1C(=O)CCC1=O : > 10000 nM
COc1ccc(N2CCN(C(=O)ON3C(=O)CC(c4ccccc4)C3=O)CC2)cc1 (centres unmarked) : 1000 to 10000 nM

Could you now consider this next compound?
# query: IC50 | item "O=C(ON1C(=O)c2ccccc2C1=O)N1CCC(CCc2ccc(Cl)cc2)CC1" | system: MAGL (Mus musculus)
1000 to 10000 nM
